- experimentalTarget: recombinant human ENTPD3 (Homo sapiens (Human), UniProt O75355)
- Sequence (O75355 whole entry): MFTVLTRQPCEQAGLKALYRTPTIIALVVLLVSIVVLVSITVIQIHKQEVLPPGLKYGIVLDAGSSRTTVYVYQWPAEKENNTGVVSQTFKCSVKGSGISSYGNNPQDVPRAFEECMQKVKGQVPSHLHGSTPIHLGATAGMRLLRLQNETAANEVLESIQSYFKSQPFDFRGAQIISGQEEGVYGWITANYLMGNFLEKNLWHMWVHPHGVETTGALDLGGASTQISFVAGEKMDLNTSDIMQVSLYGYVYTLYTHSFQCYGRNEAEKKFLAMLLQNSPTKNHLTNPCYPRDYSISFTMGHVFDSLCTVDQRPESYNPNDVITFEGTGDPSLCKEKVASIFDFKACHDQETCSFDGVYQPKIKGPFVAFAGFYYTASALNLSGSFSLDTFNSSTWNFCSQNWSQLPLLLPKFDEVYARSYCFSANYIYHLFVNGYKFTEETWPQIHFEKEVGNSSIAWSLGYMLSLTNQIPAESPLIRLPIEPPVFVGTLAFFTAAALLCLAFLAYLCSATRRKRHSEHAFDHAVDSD
- assayDetails: Recombinant human ENTPD3 malachite green assay
measuredProperty: IC50

testsmiles=C#C[C@@]1(O)[C@@H](COC(Cc2ccc(N3CCCNC3=O)cc2)(C(=O)O)C(=O)O)O[C@@H](n2cnc3c(N)nc(Cl)nc32)[C@@H]1O value="> 10 µM"

====

# IC50 per entry
- experimentalTarget: recombinant CD73 (Homo sapiens (Human), UniProt P21589)
- Sequence (P21589 27-547): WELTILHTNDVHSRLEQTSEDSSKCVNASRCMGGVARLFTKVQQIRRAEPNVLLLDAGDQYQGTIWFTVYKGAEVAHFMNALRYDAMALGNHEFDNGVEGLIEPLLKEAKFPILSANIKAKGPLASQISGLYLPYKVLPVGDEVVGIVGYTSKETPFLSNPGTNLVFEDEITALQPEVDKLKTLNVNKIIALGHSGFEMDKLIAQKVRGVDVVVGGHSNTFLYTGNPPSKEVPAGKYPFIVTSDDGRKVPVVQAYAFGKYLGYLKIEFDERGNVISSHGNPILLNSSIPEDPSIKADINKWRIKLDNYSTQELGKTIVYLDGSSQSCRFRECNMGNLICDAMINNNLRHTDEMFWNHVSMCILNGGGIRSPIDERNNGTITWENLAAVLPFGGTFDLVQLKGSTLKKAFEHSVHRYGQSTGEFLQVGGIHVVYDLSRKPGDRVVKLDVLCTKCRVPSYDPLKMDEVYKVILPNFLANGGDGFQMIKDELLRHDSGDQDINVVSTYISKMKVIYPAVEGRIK
- assayDetails: Assay 2: Inhibition of the CD73 enzyme in vitro (0.05 nM CD73, 1 hour 37° C., Malachite Green)
- Type: biochemical
- condition: 0.05 nM CD73, 50 μM AMP, 1 hour at 37° C.
measuredProperty: IC50 (nM)

compound="C#C[C@@]1(O)[C@@H](CO[C@H](Cc2ccc(N3CCCNC3=O)cc2)C(=O)O)O[C@@H](n2cnc3c(N)nc(Cl)nc32)[C@@H]1O (single isomer, unassigned)" value=145
compound=C#C[C@@]1(O)[C@@H](COC(Cc2ccccc2)(C(=O)O)C(=O)O)O[C@@H](n2cnc3c(N4CC(O)C4)nc(Cl)nc32)[C@@H]1O value=0.6
compound=C#C[C@@]1(O)[C@@H](COC(Cc2ccccc2)(C(=O)O)C(=O)O)O[C@@H](n2cnc3c(N4CC[C@@H](CO)C4)nc(Cl)nc32)[C@@H]1O value=1
compound=C#C[C@@]1(O)[C@@H](COC(Cc2ccn[nH]2)(C(=O)O)C(=O)O)O[C@@H](n2cnc3c(N)nc(Cl)nc32)[C@@H]1O value=8
compound=C#C[C@@]1(O)[C@@H](COC(Cc2ccoc2)(C(=O)O)C(=O)O)O[C@@H](n2cnc3c(N)nc(Cl)nc32)[C@@H]1O value=2
compound=C#C[C@@]1(O)[C@@H](COC(Cc2ccccc2)(C(=O)O)C(=O)O)O[C@@H](n2cnc3c(N(C)CC4CC4)nc(Cl)nc32)[C@@H]1O value=0.6
compound=C#C[C@@]1(O)[C@@H](COC(Cc2cscn2)(C(=O)O)C(=O)O)O[C@@H](n2cnc3c(N)nc(Cl)nc32)[C@@H]1O value=9
compound=C#C[C@@]1(O)[C@@H](COC(Cc2cc(C)on2)(C(=O)O)C(=O)O)O[C@@H](n2cnc3c(NCc4ccc(F)cc4)nc(Cl)nc32)[C@@H]1O value=2670
compound=C#C[C@@]1(O)[C@@H](COC(Cc2ccc(N3CCCC3)cc2)(C(=O)O)C(=O)O)O[C@@H](n2cnc3c(N)nc(Cl)nc32)[C@@H]1O value=1
compound=C#C[C@@]1(O)[C@@H](COC(Cc2ccccc2)(C(=O)O)C(=O)O)O[C@@H](n2cnc3c(NCc4cccc(Cl)c4)nc(Cl)nc32)[C@@H]1O value=1
compound=C#C[C@@]1(O)[C@@H](COC(Cc2ccccc2)(C(=O)O)C(=O)O)O[C@@H](n2cnc3c(NC[C@H](C)O)nc(Cl)nc32)[C@@H]1O value=4
compound=C#C[C@@]1(O)[C@@H](COC(Cc2ccccc2)(C(=O)O)C(=O)O)O[C@@H](n2cnc3c(N(C)C4CCC4)nc(Cl)nc32)[C@@H]1O value=0.4

====

- experimentalTarget: recombinant CD73 (Homo sapiens (Human))
- assayDetails: Assay 2: Inhibition of the CD73 enzyme in vitro (0.05 nM CD73, 1 hour 37° C., Malachite Green)
- Assay type: biochemical
- condition: 0.05 nM CD73, 50 μM AMP, 1 hour at 37° C.
- Method: For measurements of soluble CD73 enzyme activity, recombinant CD73 was obtained from R&D Systems, Cat. No. 5795-EN-010. […] Reactions were allowed to proceed for 1 hour at 37° C. before the addition of 100 μL Malachite Green (Cell Signaling Technology, Cat. No. 12776). After 5 minutes at room temperature, absorbance at 630 nm was determined on a microplate spectrophotometer. The concentration of inorganic phosphate was determined using a phosphate standard curve.
measuredProperty: IC50 (nM)

testsmiles=C#C[C@@]1(O)[C@@H](COC(Cc2ccccc2)(C(=O)O)C(=O)O)O[C@@H](n2cnc3c(N(CCO)C4CC4)nc(Cl)nc32)[C@@H]1O measuredproperty=IC50 unitsymbol=nM value=6
testsmiles=C#C[C@@]1(O)[C@@H](COC(CC)(C(=O)O)C(=O)O)O[C@@H](n2cnc3c(N)nc(Cl)nc32)[C@@H]1O measuredproperty=IC50 unitsymbol=nM value=24
testsmiles=C#C[C@@]1(O)[C@@H](COC(Cc2ccc(N3CCCNC3=O)cc2)(C(=O)O)C(=O)O)O[C@@H](n2ccc(=O)[nH]c2=O)[C@@H]1O measuredproperty=IC50 unitsymbol=nM value=16
testsmiles=C#C[C@@]1(O)[C@@H](COC(Cc2ccc(N3CCCNC3=O)cc2)(C(=O)O)C(=O)O)O[C@@H](n2cnc3c(NC(C)C)nc(Cl)nc32)[C@@H]1O measuredproperty=IC50 unitsymbol=nM value=0.29
testsmiles=C#C[C@@]1(O)[C@@H](COC(Cc2ccccc2)(C(=O)O)C(=O)O)O[C@@H](n2cnc3c(N)nc(SCC)nc32)[C@@H]1O measuredproperty=IC50 unitsymbol=nM value=108
testsmiles=C#C[C@@]1(O)[C@@H](COC(Cc2ccc(N3CCCCC3=O)cc2)(C(=O)O)C(=O)O)O[C@@H](n2cnc3c(N)nc(Cl)nc32)[C@@H]1O measuredproperty=IC50 unitsymbol=nM value=0.26

Origin of values: patent US11078228B2
